molecular target: interaction between p53 and MDM2 proteins (Homo sapiens, UniProt Q00987); assay: HTRF assay of inhibition of the p53-MDM2 interaction (GST-MDM2 / biotinylated p53 peptide); conditions: recombinant GST-tagged MDM2 and biotinylated p53 peptide, bsa:0.02%
Sequence (Q00987 whole entry): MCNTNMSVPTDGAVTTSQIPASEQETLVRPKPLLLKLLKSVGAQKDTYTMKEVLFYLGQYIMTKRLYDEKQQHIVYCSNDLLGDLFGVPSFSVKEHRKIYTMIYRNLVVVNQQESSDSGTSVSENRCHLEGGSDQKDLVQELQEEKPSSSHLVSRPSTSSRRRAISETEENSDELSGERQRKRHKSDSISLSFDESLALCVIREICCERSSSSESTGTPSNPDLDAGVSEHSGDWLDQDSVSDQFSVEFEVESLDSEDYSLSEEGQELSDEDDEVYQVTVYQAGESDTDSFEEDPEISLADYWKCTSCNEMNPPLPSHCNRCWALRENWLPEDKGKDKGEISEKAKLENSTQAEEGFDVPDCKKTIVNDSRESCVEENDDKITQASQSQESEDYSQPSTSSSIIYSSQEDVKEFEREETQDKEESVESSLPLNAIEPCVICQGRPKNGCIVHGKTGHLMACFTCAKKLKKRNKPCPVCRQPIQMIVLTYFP
recorded_metric: pIC50
pIC50 is a log-scale quantity: -log10 of the concentration expressed in molar.

**Query** I would be grateful if you could share the reported pIC50 for CCCCOc1cc(C(=O)O)ccc1NC(=O)[C@@H]1N[C@@H](CC(C)(C)C)[C@@]2(C(=O)Nc3cc(Cl)ccc32)[C@H]1c1cccc(Cl)c1F (racemic) .
**Result** 7.89

**Query** # lookup: pIC50 of CCOC(=O)Cc1ccc(NC(=O)[C@@H]2N[C@@H](CC(C)(C)C)[C@@]3(C(=O)Nc4cc(Cl)ccc43)[C@H]2c2cccc(Cl)c2F)cc1 (racemic)
**Result** 7.89

**Query** Query: pIC50; subject: COC(=O)c1cccc(NC(=O)[C@@H]2N[C@@H](CC(C)(C)C)[C@@]3(C(=O)Nc4cc(Cl)ccc43)[C@H]2c2cccc(Cl)c2F)c1 (racemic)
**Result** 7.77

**Query** Could you share which pIC50 value was measured for CC(C)(C)C[C@@H]1N[C@@H](C(=O)Nc2ccc(C#N)cc2)[C@H](c2cccc(Cl)c2F)[C@]12C(=O)Nc1cc(Cl)cc(F)c12 (racemic) ?
**Result** 7.66

**Query** Given the entry `CC(C)(C)C[C@@H]1N[C@@H](C(=O)Nc2ccc(OCCO)cc2)[C@H](c2cccc(Cl)c2F)[C@]12C(=O)Nc1cc(Cl)ccc12` , report its measured pIC50.
**Result** 8.15

**Query** Requested field: pIC50. Item: COc1cc(C#N)ccc1NC(=O)[C@@H]1N[C@@H](CC(C)(C)C)[C@@]2(C(=O)Nc3cc(Cl)ccc32)[C@H]1c1cccc(Br)c1F (racemic)
**Result** 7.82

**Query** Could you share which pIC50 value was measured for `COc1cc(OCCSC)ccc1NC(=O)[C@@H]1N[C@@H](CC(C)(C)C)[C@@]2(C(=O)Nc3cc(Cl)ccc32)[C@H]1c1cccc(Cl)c1F` ?
**Result** 7.96

**Query** // lookup pIC50 for CC(C)(C)C[C@@H]1N[C@@H](C(=O)Nc2ccc(C(N)=O)cc2)[C@H](c2cccc(Cl)c2F)[C@]12C(=O)Nc1cc(Cl)ccc12 (racemic) [Example 8]
**Result** 8.15

**Query** Which value of pIC50 has been reported for Cc1ccc(NC(=O)[C@@H]2N[C@@H](CC(C)(C)C)[C@@]3(C(=O)Nc4cc(Cl)ccc43)[C@H]2c2cccc(Cl)c2F)cc1 (racemic) in the records?
**Result** 7.74

**Query** What pIC50 value was documented for this compound, `COc1cc(OC2CCOCC2)ccc1NC(=O)[C@@H]1N[C@@H](CC(C)(C)C)[C@@]2(C(=O)Nc3cc(Cl)ccc32)[C@H]1c1cccc(Cl)c1F` ?
**Result** 8.00

**Query** Looking for the measured pIC50 of CC(C)(C)C[C@@H]1N[C@@H](C(=O)Nc2ccn(CCO)c(=O)c2)[C@H](c2cccc(Cl)c2F)[C@]12C(=O)Nc1cc(Cl)ccc12 (racemic) , can you help?
**Result** 7.85

* * *

molecular target: interaction between p53 and MDM2 proteins (Homo sapiens, UniProt Q00987); assay: HTRF assay of inhibition of the p53-MDM2 interaction (GST-MDM2 / biotinylated p53 peptide); settings: recombinant GST-tagged MDM2 and biotinylated p53 peptide, bsa:0.02%
recorded_metric: pIC50
Lab note: report pIC50 as minus log10 of the concentration in molar units, number only.

**Query** Which pIC50 reading was recorded for the compound CC(C)(C)C[C@@H]1N[C@@H](C(=O)Nc2cccc(C(=O)O)c2)[C@H](c2cccc(Cl)c2F)[C@]12C(=O)Nc1cc(Cl)ccc12 (racemic) ?
**Result** 7.77

**Query** For the compound CCOc1cc(C(=O)O)ccc1NC(=O)[C@@H]1N[C@@H](CC(C)(C)C)[C@@]2(C(=O)Nc3cc(Cl)ccc32)[C@H]1c1cccc(Cl)c1F (racemic) , what pIC50 is on record?
**Result** 7.96

**Query** What measured pIC50 goes with `COc1cc(OCCS(C)(=O)=O)ccc1NC(=O)[C@@H]1N[C@@H](CC(C)(C)C)[C@@]2(C(=O)Nc3cc(Cl)ccc32)[C@H]1c1cccc(Cl)c1F` ?
**Result** 8.15

**Query** Would you kindly share the measured pIC50 for CC(C)(C)C[C@@H]1N[C@@H](C(=O)Nc2ccc(C#N)cc2)[C@H](c2cccc(Br)c2F)[C@]12C(=O)Nc1cc(Cl)ccc12 (racemic) ?
**Result** 7.74

**Query** Param item = COc1cc(C(=O)O)c(F)cc1NC(=O)[C@@H]1N[C@@H](CC(C)(C)C)[C@@]2(C(=O)Nc3cc(Cl)ccc32)[C@H]1c1cccc(Cl)c1F (racemic) [Example 215] ; retrieve measured pIC50.
**Result** 7.96

* * *

target: interaction between p53 and MDM2 proteins (Homo sapiens, UniProt Q00987); experiment: HTRF assay of inhibition of the p53-MDM2 interaction (GST-MDM2 / biotinylated p53 peptide); conditions: recombinant GST-tagged MDM2 and biotinylated p53 peptide, bsa:0.02%
Can you tell me IC50 for the items I'm about to list?
Number in nM, nothing else.

**Query** Fill in the recorded IC50 for this molecule, with interaction between p53 and MDM2 proteins (Homo sapiens, UniProt Q00987) as test system: CC(=O)c1ccc(NC(=O)[C@@H]2N[C@@H](CC(C)(C)C)[C@@]3(C(=O)Nc4cc(Cl)ccc43)[C@H]2c2cccc(Cl)c2F)cc1 (racemic) [Example 11]
**Result** 13

**Query** Can you look up IC50 on interaction between p53 and MDM2 proteins (Homo sapiens, UniProt Q00987) for COc1cc(C#N)ccc1NC(=O)[C@@H]1N[C@@H](CC(C)(C)C)[C@@]2(C(=O)Nc3cc(Br)ccc32)[C@H]1c1cccc(Cl)c1F (racemic) ?
**Result** 11

**Query** Can you look up IC50 on interaction between p53 and MDM2 proteins (Homo sapiens, UniProt Q00987) for COC(=O)c1ccc(NC(=O)[C@@H]2N[C@@H](CC(C)(C)C)[C@@]3(C(=O)Nc4cc(Cl)ccc43)[C@H]2c2cccc(Cl)c2F)cc1 (racemic) ?
**Result** 16

**Query** Request body: readout IC50, system interaction between p53 and MDM2 proteins (Homo sapiens, UniProt Q00987), query COc1cc(NC(=O)[C@@H]2N[C@@H](CC(C)(C)C)[C@@]3(C(=O)Nc4cc(Cl)ccc43)[C@H]2c2cccc(Cl)c2F)ccc1C(N)=O [Example 23] . Return the value.
**Result** 5

**Query** State its IC50 on interaction between p53 and MDM2 proteins (Homo sapiens, UniProt Q00987): CC(C)(C)C[C@@H]1N[C@@H](C(=O)Nc2ccc(C(N)=O)cc2)[C@H](c2cc(F)cc(Cl)c2)[C@]12C(=O)Nc1cc(Cl)ccc12 (racemic)
**Result** 13

* * *

molecular target: interaction between p53 and MDM2 proteins (Homo sapiens, UniProt Q00987); assay: HTRF assay of inhibition of the p53-MDM2 interaction (GST-MDM2 / biotinylated p53 peptide); conditions: recombinant GST-tagged MDM2 and biotinylated p53 peptide, bsa:0.02%
recorded_metric: pIC50
Scale: negative log10 of molar concentration, which is what pIC50 denotes.

**Query** GET /values?readout=pIC50&item= COc1cc(C(=O)O)ccc1NC(=O)[C@@H]1N[C@@H](CC(C)(C)C)[C@@]2(C(=O)Nc3cc(Cl)ccc32)[C@H]1c1cccc(Cl)c1F (racemic) [Example 110]
**Result** 7.96

**Query** # input molecule: CC(C)(C)C[C@@H]1N[C@@H](C(=O)Nc2ccc(C(N)=O)cc2F)[C@H](c2cccc(Cl)c2F)[C@]12C(=O)Nc1cc(Cl)ccc12 (racemic) [Example 53] ; wanted: its pIC50
**Result** 7.96

**Query** Any idea what its pIC50 is? The molecule is `COc1cc(CC(=O)OC(C)(C)C)ccc1NC(=O)[C@@H]1N[C@@H](CC(C)(C)C)[C@@]2(C(=O)Nc3cc(Cl)ccc32)[C@H]1c1cccc(Cl)c1F`
**Result** 7.85

**Query** Given the entry CC(C)(C)C[C@@H]1N[C@@H](C(=O)Nc2ccc(C(N)=O)cc2)[C@H](c2cccc(Cl)c2F)[C@]12C(=O)Nc1cc(Cl)c(F)cc12 [Example 50] , report its measured pIC50.
**Result** 8.22

**Query** Endpoint output: pIC50 of CC(C)(C)C[C@@H]1N[C@@H](C(=O)Nc2ccc(Cl)cc2)[C@H](c2cccc(Cl)c2F)[C@]12C(=O)Nc1cc(Cl)ccc12 (racemic) . Value?
**Result** 7.72

**Query** # query: pIC50 of entry COC(=O)c1ccc(NC(=O)[C@@H]2N[C@@H](CC(C)(C)C)[C@@]3(C(=O)Nc4cc(Cl)ccc43)[C@H]2c2cccc(Cl)c2)c(OC)c1 (racemic)
**Result** 7.77

**Query** Form field: reported pIC50 of CN(C)C(=O)c1ccc(NC(=O)[C@@H]2N[C@@H](CC(C)(C)C)[C@@]3(C(=O)Nc4cc(Cl)ccc43)[C@H]2c2cccc(Cl)c2F)cc1 (racemic) [Example 34]
**Result** 7.74

**Query** # query: pIC50 of entry CC(C)(C)C[C@@H]1N[C@@H](C(=O)Nc2ccc(CCC(N)=O)cc2)[C@H](c2cccc(Cl)c2F)[C@]12C(=O)Nc1cc(Cl)ccc12 (racemic)
**Result** 7.82

Numbers sourced from patent US8088815B2.
